B1: CD2-associated protein, residues 109 to 169; numbered along this chain, Q9Y5K6 (parent)
chain: KKRQCKVLFEYIPQNEDELELKVGDIIDINEEVEEGWWSGTLNNKLGLFPSNFVKELEVTD

Variants of: B1
test name: abundance fitness (aPCA) (normalised: wild type 0, dead -1); higher = more abundant; growth selection in yeast, the domain comes from the species named
test parameters: Homo sapiens
Parameter class (string): assigned from measured abundance fitness. Ranges: A (below -0.6), B (-0.6 to below -0.2), C (-0.2 or more)

INPUT: Category of P50K :
OUTPUT: B

INPUT: Pick a category. Item: E31K
OUTPUT: C

INPUT: Into which category would you place I26E ?
OUTPUT: B

INPUT: Which class is correct for the following variant? V54Q
OUTPUT: B

INPUT: Exam item: assign L48D to the correct category.
OUTPUT: A

INPUT: Class? Entry: D28H
OUTPUT: C

INPUT: Category of V59N :
OUTPUT: B

INPUT: Could you tell me which band E31P belongs to?
OUTPUT: A

Entry source: the Human Domainome abundance scans (Beltran et al. 2025)
